Provide the reported IC50 of each item.
assayed_target: Estrogen receptor (Homo sapiens, UniProt P03372)
Sequence (P03372 whole entry): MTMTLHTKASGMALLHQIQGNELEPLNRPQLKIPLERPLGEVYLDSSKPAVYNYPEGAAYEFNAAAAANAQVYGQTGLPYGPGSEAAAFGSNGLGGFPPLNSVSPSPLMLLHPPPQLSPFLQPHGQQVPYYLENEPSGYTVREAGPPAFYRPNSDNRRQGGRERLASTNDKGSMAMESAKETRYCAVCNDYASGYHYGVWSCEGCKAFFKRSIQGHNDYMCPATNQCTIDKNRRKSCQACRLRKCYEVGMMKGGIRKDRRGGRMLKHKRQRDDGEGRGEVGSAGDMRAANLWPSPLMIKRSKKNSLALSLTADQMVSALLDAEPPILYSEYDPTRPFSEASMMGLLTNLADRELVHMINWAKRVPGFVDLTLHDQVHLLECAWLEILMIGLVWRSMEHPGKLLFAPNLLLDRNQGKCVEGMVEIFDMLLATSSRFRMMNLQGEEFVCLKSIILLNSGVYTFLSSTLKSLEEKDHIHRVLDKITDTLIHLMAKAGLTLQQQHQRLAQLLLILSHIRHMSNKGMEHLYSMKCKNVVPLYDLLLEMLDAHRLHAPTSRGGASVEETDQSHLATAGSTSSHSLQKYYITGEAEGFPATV

Worked set:
INSERT INTO assay_data (compound, test_value) VALUES
  ('Cn1c(C#N)ccc1-c1ccc2c(c1)C(C)(c1ccco1)OCC(=O)N2 (centres undefined)', '> 10 µM'),
  ('Cn1c(C#N)ccc1-c1ccc2c(c1)C(c1ccco1)(c1ccco1)OCC(=O)N2', '> 10 µM'),
  ('Cn1c(C#N)ccc1-c1ccc2c(c1)C(C)(c1ccsc1)OCC(=O)N2 (centres undefined)', '> 10 µM');

Record Cn1c(C#N)ccc1-c1ccc2c(c1)C(c1cccs1)(c1cccs1)OCC(=O)N2 , field IC50: > 10 µM

----------
assayed_target: Mineralocorticoid receptor (Homo sapiens)
Sequence (P08235 whole entry): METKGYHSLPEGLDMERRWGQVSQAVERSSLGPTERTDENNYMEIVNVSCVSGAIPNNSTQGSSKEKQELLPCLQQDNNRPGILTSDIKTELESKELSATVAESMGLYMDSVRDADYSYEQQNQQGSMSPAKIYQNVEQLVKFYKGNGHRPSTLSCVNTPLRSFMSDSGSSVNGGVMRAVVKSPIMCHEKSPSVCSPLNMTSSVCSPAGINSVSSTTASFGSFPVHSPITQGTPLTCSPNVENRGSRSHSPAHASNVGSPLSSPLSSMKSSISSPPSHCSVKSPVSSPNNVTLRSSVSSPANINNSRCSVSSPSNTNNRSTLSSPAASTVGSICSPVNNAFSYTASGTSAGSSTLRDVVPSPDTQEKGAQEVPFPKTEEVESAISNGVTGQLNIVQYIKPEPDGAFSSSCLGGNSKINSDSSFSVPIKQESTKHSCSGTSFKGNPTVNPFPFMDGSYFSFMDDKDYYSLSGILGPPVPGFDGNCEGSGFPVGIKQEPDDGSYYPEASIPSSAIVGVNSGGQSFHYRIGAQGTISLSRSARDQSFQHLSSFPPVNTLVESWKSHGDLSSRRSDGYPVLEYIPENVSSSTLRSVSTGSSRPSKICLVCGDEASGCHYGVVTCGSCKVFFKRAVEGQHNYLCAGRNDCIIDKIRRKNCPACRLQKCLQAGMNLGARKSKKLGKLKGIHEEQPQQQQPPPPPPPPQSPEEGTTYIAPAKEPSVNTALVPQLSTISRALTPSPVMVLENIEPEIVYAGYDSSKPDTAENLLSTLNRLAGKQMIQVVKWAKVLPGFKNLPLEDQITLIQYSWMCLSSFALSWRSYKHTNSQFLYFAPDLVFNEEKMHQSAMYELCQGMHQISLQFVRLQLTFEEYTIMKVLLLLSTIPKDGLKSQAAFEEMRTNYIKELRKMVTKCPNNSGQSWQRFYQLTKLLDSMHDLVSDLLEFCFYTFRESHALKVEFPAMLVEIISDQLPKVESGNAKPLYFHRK
Provide the reported pIC50 of each item.
One number for each entry, as −log10 of the molar value.

// for each compound in input: emit pIC50
1. Cn1c(C#N)ccc1-c1ccc2c(c1)C(C)(c1ccsc1)OCC(=O)N2 (centres undefined)
2. Cn1c(C#N)ccc1-c1ccc2c(c1)C(c1ccco1)(c1ccco1)OCC(=O)N2
3. Cn1c(C#N)ccc1-c1ccc2c(c1)C(C)(c1ccco1)OCC(=O)N2 (centres undefined)
4. Cn1c(C#N)ccc1-c1ccc2c(c1)C(c1cccs1)(c1cccs1)OCC(=O)N2

Response:
1: 6.36; 2: 5.55; 3: 6.81; 4: 5.64

Hey, just so you know, these numbers are from ChEMBL document CHEMBL1144156.
